In this section we review reported Human Primary Hepatocyte Editing % 100 values for a set of molecules.
Test system: PCSK9 gene
method_summary: PCSK9 gRNA/SpCas9 editing in primary human hepatocytes (Tables 2, 4)
Format: cell-based
reported_conditions: 100 ng/RNA/mL; SpCas9 mRNA MS002 1:1 by weight
In the oligonucleotide strings, read from the 5' end, every base follows the letter of its sugar. An asterisk marks phosphorothioate; unmarked linkages are phosphodiester. Other units and linkages are bracketed, terminal groups are in braces. A string of capitals states the bases alone. m = 2'-O-methyl; r = 2'-OH (RNA)
quantity_kind: Human Primary Hepatocyte Editing % 100 (%)

GA236: PCSK9 gRNA; protospacer AGCCCTCGCCAGGCGCTGGC (SEQ ID NO: 229) (nucleic acid, sugars from the 5' end m3 r94 m3, linkages s3 o93 s3 (s phosphorothioate, o phosphodiester), T or U not given here) guide: AGCCCUCGCCAGGCGCUGGCGUUUUAGAGCUAGAAAUAGCAAGUUAAAAUAAGGCUAGUCCGUUAUCAACUUGAAAAAGUGGCACCGAGUCGGUGCUUUU
6.92
GA218: PCSK9 gRNA; protospacer CGCTGACCACCCCTGCCAGG (SEQ ID NO: 212) (nucleic acid, sugars from the 5' end m3 r94 m3, linkages s3 o93 s3 (s phosphorothioate, o phosphodiester), T or U not given here) guide: CGCUGACCACCCCUGCCAGGGUUUUAGAGCUAGAAAUAGCAAGUUAAAAUAAGGCUAGUCCGUUAUCAACUUGAAAAAGUGGCACCGAGUCGGUGCUUUU
3.81
GA205: PCSK9 gRNA; protospacer CCCTGCCCTCGATTTCCCGG (SEQ ID NO: 199) (nucleic acid, sugars from the 5' end m3 r94 m3, linkages s3 o93 s3 (s phosphorothioate, o phosphodiester), T or U not given here) guide: CCCUGCCCUCGAUUUCCCGGGUUUUAGAGCUAGAAAUAGCAAGUUAAAAUAAGGCUAGUCCGUUAUCAACUUGAAAAAGUGGCACCGAGUCGGUGCUUUU
3.74
GA206: PCSK9 gRNA; protospacer CCGGTGGTCACTCTGTATGC (SEQ ID NO: 200) (nucleic acid, sugars from the 5' end m3 r94 m3, linkages s3 o93 s3 (s phosphorothioate, o phosphodiester), T or U not given here) guide: CCGGUGGUCACUCUGUAUGCGUUUUAGAGCUAGAAAUAGCAAGUUAAAAUAAGGCUAGUCCGUUAUCAACUUGAAAAAGUGGCACCGAGUCGGUGCUUUU
0.85
GA220: PCSK9 gRNA; protospacer GTGCTCAACTGCCAAGGGAA (SEQ ID NO: 214) (nucleic acid, sugars from the 5' end m3 r94 m3, linkages s3 o93 s3 (s phosphorothioate, o phosphodiester), T or U not given here) guide: GUGCUCAACUGCCAAGGGAAGUUUUAGAGCUAGAAAUAGCAAGUUAAAAUAAGGCUAGUCCGUUAUCAACUUGAAAAAGUGGCACCGAGUCGGUGCUUUU
2.17
GA179: PCSK9 gRNA; protospacer GAGTGGCGACCTGCTGGAGC (SEQ ID NO: 173) (nucleic acid) guide: mG*mA*mG*rUrGrGrCrGrArCrCrUrGrCrUrGrGrArGrCrGrUrUrUrUrArGrArGrCrUrArGrArArArUrArGrCrArArGrUrUrArArArArUrArArGrGrCrUrArGrUrCrCrGrUrUrArUrCrArArCrUrUrGrArArArArArGrUrGrGrCrArCrCrGrArGrUrCrGrGrUrGrCrU*mU*mU*mU
1.29
